Assay: probe aLAP1 signal on lysate-treated microarray – cell lysate, small-molecule microarray, COS7 lysate, primary screen (AID 1124);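 further: lysate comes from COS7 cells expressing LAP1 and is applied at 0.3 µg/mL; score merges spot fluorescence near 667 nm with signal-to-noise over triplicate slides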
Conditions: probe aLAP1, fluorescence, higher = more signal
Each item that follows carries a reported composite z-score.
QUANTITY_NAME: composite z-score

>>> observed_result("O=C1c2ccccc2[C@](Cc2ccccc2I)(C(=O)NC2CC2)[C@H](c2ccc(CO)cc2)N1Cc1ccccc1Cl")
0.696
>>> observed_result("COc1ccc(C#Cc2ccc3c(c2)[C@]2(C(=O)N3)[C@H](C(N)=O)[C@H]3C(=O)O[C@H](c4ccccc4)[C@H](c4ccccc4)N3[C@@H]2c2ccc(O)cc2)cc1")
0.211
>>> observed_result("CCOC(=O)C1=CC[C@@H](c2cccc(Br)c2)N(S(=O)(=O)c2ccc(C)cc2)[C@H]1c1ccc([N+](=O)[O-])cc1")
0.885
>>> observed_result("COc1ccc(C#Cc2ccc3c(c2)[C@]2(C(=O)N3)[C@H](c3ccc(OCCO)cc3)N3[C@H](c4ccccc4)[C@H](c4ccccc4)OC(=O)[C@H]3[C@@H]2C(=O)N2CCN(c3ncccn3)CC2)cc1")
0.324
>>> observed_result("COC(=O)c1c(CC[C@@H](CO)NC(=O)N[C@@H](C)Cn2cc(C3(O)CCCC3)nn2)oc(C(C)=O)c1C(=O)OC")
0.0377

src = PubChem BioAssay
